B1: Neutrophil cytosol factor 2, residues 456 to 514; numbered along this chain, P19878 (parent)
chain: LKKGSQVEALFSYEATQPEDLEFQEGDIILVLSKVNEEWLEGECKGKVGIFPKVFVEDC

variants of: B1; assay: abundance fitness (aPCA) (normalised: wild type 0, dead -1); higher = more abundant; growth selection in yeast, the domain comes from the species named; details: Homo sapiens
Recorded measurements of abundance fitness, one per entry
value kind: abundance fitness

1. E22P	-0.225
2. F51I	-0.506
3. G42W	-0.322
4. E57S	0.271
5. V7A	-0.662
6. L40Y	0.528
7. K45R	0.012
8. L40M	-0.042
9. E14I	-0.304
10. I50Q	-0.659
11. I29C	-0.497
